Items are presented alongside their recorded pIC50.
Target: beta-catenin/TCF4 engagement (Homo sapiens, UniProt P35222)
Construct: expressed in transfected cells; host or cells: HEK293
Sequence (P35222 whole entry): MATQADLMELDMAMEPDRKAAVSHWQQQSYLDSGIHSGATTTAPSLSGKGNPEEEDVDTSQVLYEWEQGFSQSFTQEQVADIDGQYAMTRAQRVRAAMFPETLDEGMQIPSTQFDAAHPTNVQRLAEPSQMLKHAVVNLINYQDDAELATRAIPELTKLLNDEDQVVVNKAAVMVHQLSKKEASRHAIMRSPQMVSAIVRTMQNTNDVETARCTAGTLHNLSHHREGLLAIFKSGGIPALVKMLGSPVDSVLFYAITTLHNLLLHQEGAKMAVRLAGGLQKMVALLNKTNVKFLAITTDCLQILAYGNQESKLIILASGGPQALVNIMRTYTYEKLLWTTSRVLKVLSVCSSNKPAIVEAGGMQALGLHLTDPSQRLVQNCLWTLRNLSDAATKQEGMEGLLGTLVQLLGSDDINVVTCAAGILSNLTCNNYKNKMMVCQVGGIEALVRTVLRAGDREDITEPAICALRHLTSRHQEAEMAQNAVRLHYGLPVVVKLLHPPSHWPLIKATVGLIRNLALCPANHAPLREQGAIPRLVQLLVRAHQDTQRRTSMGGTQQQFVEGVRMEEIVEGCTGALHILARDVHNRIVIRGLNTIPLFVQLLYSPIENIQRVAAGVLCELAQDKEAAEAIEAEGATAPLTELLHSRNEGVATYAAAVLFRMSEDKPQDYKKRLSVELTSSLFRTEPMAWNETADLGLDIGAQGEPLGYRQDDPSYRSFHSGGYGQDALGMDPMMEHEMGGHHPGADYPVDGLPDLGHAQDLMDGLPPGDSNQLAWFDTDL
Assay: Nano-BRET target engagement assay (B-cat-Halo & TCF4-Luc in HEK293 cells)
Assay type: cell-based
Settings: absolute IC50; read-out: NanoBRET Abs IC50
Formally, pIC50 is defined as -log10 of the concentration c, with c in mol/L.

Would you please look over these solved cases?
MOLECULE: CC(=O)N1CCC[C@]12CC=CCCCC1(CCCC=CCCCOC(=O)N3CC[C@@](C(=O)N[C@@H](Cc4ccccc4Cl)C(=O)N[C@@H](Cc4csc5ccccc45)C(=O)N[C@@H](CCC(N)=O)C(N)=O)(C3)NC(=O)[C@H](CC(N)=O)NC(=O)[C@H](Cc3ccccc3)NC(=O)[C@H](CO)NC(=O)[C@H](C)NC(=O)[C@H](CN(CC(=O)O)CC(F)(F)F)NC(=O)[C@H](CC(=O)O)NC1=O)NC(=O)[C@H](CC(C)(C)C)NC(=O)[C@H](CC(=O)O)NC2=O (stereo partly drawn)
TEST_SYSTEM: beta-catenin/TCF4 engagement (Homo sapiens, UniProt P35222)
pIC50: 4.97
//
MOLECULE: CC(=O)N1CCC[C@]12CC=CCCCC1(CCCC=CCCCOC(=O)N3CC[C@@](C(=O)N[C@@H](Cc4ccccc4Cl)C(=O)N[C@@H](Cc4csc5ccccc45)C(=O)N[C@@H](CC(=O)N4CCOCC4)C(N)=O)(C3)NC(=O)[C@H]([C@@H](C)O)NC(=O)[C@H](Cc3ccccc3)NC(=O)[C@H](C)NC(=O)[C@H](C)NC(=O)[C@H](CN(CC(=O)O)CC(F)(F)F)NC(=O)[C@H](CC(=O)O)NC1=O)NC(=O)[C@H](CC(C)(C)C)NC(=O)[C@H](CC(=O)O)NC2=O (stereo partly drawn)
TEST_SYSTEM: beta-catenin/TCF4 engagement (Homo sapiens, UniProt P35222)
pIC50: 5.28

Below: the item to evaluate.
Form field: reported pIC50 of COC(=O)C[C@@H]1NC(=O)[C@H](CC(=O)O)NC(=O)C2(CCCC=CCCCOC(=O)N3CC[C@@](C(=O)N[C@@H](Cc4ccsc4)C(=O)N[C@@H](Cc4csc5ccccc45)C(=O)N[C@@H](CCC(N)=O)C(N)=O)(C3)NC(=O)[C@H](CC(C)C)NC(=O)[C@H](Cc3ccccc3)NC(=O)[C@H](C)NC(=O)[C@H](C)NC1=O)CCCC=CC[C@]1(CCCN1C(C)=O)C(=O)N[C@@H](CC(=O)O)C(=O)N[C@@H](CC(C)(C)C)C(=O)N2 (stereo partly drawn)
4.44

Recorded values, source patent US20240116985A1.
